Measured BHET released, listed per entry.
- RUN DESCRIPTION: BHET released, HPLC; higher = more BHET released; extreme values may be limits of the assay
- TEST CONTEXT: PET substrate: cryPow; 60 °C; pH 6.5; 24 h
Give the number; mM is assumed, so skip it.

Examples with answers:
{"SEQ TEXT": "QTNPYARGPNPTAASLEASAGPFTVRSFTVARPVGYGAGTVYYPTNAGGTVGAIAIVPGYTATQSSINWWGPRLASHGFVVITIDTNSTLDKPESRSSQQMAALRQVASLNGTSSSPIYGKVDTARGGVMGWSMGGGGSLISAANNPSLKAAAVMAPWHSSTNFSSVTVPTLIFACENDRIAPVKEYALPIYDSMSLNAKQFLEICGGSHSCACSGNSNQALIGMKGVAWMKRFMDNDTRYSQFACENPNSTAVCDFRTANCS [HotPETase]", "BHET released, mM": 0.00555}
{"SEQ TEXT": "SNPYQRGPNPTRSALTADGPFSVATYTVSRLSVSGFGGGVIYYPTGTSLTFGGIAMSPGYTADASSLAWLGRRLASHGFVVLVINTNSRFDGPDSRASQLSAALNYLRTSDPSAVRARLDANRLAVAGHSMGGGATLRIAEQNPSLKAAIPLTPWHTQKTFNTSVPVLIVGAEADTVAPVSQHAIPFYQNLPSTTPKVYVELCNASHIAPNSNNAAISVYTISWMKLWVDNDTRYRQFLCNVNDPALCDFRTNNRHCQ [LCC-ICCG DAQI]", "BHET released, mM": 0}
{"SEQ TEXT": "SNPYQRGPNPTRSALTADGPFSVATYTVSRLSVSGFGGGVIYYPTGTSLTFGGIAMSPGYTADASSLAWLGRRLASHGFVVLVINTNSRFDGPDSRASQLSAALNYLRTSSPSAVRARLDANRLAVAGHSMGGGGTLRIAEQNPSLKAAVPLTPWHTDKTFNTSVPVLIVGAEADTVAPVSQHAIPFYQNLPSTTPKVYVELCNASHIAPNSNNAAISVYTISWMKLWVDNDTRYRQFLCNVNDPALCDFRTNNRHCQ [LCC-ICCG]", "BHET released, mM": 0}
{"SEQ TEXT": "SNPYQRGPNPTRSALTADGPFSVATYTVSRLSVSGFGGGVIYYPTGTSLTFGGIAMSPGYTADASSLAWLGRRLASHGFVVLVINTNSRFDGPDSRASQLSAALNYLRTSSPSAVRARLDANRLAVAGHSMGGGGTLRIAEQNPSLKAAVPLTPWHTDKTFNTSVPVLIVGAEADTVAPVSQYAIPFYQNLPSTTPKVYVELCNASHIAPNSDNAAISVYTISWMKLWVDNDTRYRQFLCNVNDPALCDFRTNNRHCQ [LCC-A2]", "BHET released, mM": 0}

Which value of BHET released has been reported for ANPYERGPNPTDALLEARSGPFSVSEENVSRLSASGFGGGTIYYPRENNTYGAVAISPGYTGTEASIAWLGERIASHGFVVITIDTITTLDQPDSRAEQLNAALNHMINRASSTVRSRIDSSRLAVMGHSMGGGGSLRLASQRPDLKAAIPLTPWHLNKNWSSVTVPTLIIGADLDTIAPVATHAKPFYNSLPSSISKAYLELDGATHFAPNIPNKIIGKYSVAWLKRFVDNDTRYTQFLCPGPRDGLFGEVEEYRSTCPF [TfCut2] in the records?
0

---

- RUN DESCRIPTION: MHET released, HPLC; higher = more MHET released; extreme values may be limits of the assay
- TEST CONTEXT: PET substrate: cryPow; 60 °C; pH 6.5; 24 h
Measured MHET released, listed per entry.
Give the number; mM is assumed, so skip it.

Examples with answers:
{"SEQ TEXT": "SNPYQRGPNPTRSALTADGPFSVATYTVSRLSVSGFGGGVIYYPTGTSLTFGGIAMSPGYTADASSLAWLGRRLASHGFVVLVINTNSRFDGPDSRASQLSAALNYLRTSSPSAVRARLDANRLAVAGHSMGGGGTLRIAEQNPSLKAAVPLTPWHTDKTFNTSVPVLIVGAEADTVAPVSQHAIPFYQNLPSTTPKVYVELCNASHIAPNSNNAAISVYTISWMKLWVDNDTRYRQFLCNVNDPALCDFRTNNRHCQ [LCC-ICCG]", "MHET released [mM]": 0.27}
{"SEQ TEXT": "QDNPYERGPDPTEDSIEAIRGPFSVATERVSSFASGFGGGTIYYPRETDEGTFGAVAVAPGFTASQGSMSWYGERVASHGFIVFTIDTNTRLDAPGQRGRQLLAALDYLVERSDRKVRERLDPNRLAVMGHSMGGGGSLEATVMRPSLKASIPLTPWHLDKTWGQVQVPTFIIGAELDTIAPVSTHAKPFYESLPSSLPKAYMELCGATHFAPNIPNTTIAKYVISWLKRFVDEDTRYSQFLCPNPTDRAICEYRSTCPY [Cut190*SS]", "MHET released [mM]": 0.1}

Pending sequence:
Which value of MHET released has been reported for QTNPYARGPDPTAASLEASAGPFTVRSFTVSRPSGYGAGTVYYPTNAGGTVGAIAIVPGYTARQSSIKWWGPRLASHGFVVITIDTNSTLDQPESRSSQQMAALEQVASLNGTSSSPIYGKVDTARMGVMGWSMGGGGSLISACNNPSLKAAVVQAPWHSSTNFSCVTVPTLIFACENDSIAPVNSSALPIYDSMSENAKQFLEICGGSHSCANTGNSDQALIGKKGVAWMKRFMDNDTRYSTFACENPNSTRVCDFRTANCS [Z1-PETase] in the records?
0.476

---

- RUN DESCRIPTION: PET hydrolysis product formed (TPA+MHET+BHET, UV-Vis) per mg enzyme (mmol/mg enzyme); higher = more PET depolymerisation activity; extreme values may be limits of the assay
- TEST CONTEXT: PET substrate: cryPow; 70 °C; pH 7.5; 24 h
Measured PET hydrolysis product formed, listed per entry.

{"SEQ TEXT": "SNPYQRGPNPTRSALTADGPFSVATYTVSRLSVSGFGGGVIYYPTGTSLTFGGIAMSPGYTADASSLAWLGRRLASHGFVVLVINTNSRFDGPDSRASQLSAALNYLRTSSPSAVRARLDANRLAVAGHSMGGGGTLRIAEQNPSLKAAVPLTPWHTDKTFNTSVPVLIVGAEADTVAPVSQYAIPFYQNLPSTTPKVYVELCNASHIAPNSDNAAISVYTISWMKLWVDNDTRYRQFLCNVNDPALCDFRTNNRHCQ [LCC-A2]", "PROPERTY LABEL": "PET hydrolysis product formed", "MEASURED": 0.334}

Pending sequence:
Which value of PET hydrolysis product formed has been reported for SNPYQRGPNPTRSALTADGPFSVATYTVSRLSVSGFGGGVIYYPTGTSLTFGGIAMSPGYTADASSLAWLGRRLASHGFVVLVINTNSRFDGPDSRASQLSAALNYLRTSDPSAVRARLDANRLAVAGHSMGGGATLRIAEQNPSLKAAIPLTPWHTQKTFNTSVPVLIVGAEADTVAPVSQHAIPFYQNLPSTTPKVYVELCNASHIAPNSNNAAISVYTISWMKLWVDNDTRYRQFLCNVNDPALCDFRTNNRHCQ [LCC-ICCG DAQI] in the records?
0.193

---

Measured PET hydrolysis product formed, listed per entry.
- RUN DESCRIPTION: PET hydrolysis product formed (TPA+MHET+BHET, UV-Vis) per mg enzyme (mmol/mg enzyme); higher = more PET depolymerisation activity; extreme values may be limits of the assay
- TEST CONTEXT: PET substrate: aFilm; 60 °C; pH 4.5; 24 h

Examples with answers:
{"SEQ TEXT": "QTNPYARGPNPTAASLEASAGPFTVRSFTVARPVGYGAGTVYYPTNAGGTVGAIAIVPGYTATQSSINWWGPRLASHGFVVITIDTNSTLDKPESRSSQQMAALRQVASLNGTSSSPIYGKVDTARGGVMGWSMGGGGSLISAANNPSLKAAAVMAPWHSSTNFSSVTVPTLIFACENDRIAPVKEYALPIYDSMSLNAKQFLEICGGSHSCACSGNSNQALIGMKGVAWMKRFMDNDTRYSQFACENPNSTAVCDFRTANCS [HotPETase]", "PET hydrolysis product formed": 0}
{"SEQ TEXT": "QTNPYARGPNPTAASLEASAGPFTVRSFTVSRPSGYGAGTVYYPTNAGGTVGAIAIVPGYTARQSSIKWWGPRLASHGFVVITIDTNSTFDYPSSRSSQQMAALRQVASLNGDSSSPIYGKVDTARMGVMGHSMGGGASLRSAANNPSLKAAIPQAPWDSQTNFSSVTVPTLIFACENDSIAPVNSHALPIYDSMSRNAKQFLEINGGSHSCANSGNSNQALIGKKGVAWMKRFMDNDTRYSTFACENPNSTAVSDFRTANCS [DuraPETase]", "PET hydrolysis product formed": 0}

Which value of PET hydrolysis product formed has been reported for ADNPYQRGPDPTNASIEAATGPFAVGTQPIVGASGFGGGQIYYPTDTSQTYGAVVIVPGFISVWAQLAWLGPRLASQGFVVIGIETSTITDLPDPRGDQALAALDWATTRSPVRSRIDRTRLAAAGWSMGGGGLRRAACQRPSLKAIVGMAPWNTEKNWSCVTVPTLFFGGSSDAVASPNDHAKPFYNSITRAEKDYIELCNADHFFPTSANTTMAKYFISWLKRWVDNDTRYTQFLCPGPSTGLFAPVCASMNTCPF [CaPETaseM9] in the records?
0

Which value of PET hydrolysis product formed has been reported for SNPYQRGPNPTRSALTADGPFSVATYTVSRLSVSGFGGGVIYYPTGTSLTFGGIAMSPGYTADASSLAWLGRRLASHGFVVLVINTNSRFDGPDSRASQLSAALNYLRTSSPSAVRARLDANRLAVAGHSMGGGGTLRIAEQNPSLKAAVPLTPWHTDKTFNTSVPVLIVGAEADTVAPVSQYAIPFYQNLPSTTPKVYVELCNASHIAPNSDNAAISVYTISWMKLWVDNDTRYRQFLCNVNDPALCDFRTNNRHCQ [LCC-A2] in the records?
0.0551

Which value of PET hydrolysis product formed has been reported for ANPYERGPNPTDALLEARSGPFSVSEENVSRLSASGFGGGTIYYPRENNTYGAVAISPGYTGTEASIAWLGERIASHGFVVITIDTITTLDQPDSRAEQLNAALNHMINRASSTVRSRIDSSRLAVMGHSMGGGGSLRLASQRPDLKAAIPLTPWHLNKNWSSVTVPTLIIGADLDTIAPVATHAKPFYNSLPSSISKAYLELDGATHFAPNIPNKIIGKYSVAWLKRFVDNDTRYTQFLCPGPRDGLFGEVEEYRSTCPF [TfCut2] in the records?
0

Which value of PET hydrolysis product formed has been reported for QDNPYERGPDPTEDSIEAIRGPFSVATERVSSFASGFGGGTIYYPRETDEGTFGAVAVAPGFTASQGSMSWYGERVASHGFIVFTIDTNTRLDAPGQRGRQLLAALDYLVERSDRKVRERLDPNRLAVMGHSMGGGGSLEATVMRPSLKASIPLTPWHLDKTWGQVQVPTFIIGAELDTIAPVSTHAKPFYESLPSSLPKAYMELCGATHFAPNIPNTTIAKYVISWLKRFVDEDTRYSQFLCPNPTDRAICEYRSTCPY [Cut190*SS] in the records?
0

Data provenance: the supplement of paper PMC11196671
